- experimental.system: hTMEM16A (abc) (Homo sapiens, UniProt Q5XXA6, DEL476-501)
- Sequence (Q5XXA6 with tags, fused parts or gaps isoform Q5XXA6-5 DEL539-564): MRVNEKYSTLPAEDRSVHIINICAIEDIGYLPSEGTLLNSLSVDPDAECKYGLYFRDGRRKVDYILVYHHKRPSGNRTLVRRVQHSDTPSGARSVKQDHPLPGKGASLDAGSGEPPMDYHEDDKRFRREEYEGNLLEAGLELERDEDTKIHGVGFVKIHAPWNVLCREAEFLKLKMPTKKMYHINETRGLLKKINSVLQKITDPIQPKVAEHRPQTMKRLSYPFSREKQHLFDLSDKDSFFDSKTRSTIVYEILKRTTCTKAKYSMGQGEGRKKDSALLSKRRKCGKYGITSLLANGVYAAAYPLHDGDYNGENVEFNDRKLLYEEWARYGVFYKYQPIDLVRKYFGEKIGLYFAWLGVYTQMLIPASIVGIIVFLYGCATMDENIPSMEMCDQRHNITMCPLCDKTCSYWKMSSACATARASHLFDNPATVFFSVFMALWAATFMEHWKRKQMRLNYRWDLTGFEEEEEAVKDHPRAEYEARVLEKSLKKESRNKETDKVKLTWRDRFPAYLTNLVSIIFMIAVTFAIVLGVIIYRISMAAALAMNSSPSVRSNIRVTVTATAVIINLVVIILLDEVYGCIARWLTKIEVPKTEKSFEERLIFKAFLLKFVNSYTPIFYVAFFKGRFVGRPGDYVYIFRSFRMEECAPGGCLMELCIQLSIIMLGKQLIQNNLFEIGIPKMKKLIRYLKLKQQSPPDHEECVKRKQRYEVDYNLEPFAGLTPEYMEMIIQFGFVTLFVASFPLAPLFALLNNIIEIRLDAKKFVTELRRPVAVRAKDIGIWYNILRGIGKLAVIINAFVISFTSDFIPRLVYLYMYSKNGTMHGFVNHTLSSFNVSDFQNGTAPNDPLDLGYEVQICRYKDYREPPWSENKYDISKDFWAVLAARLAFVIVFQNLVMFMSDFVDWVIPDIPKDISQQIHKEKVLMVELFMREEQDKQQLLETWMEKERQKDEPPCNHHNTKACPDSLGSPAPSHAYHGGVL
- protocol: medchem TMEM16A halide-sensitive YFP assay, 22-point dose-response
- Type: cell-based
- Set-up: expressed in transfected cells
- cond: supplement; iodide as permeant anion, maximum concentration 55.6; read-out: TMEM16A eYFP Assay IC50
- Experimental: The TMEM16A HEK293T eYFP (H149Q, I153L) stable cell line for medchem support was generated by transfecting 10 μg of linearized hTMEM16A(abc) DNA constructs into HEK293T eYFP (H149Q,I153L) stable cells. […] YFP function assay were performed on duplicated plate and clones producing higher changes in fluorescence from the YFP assay were chosen for further expansion to form a stable cell line. […]
pIC50: −log10 of the molar value.
Label rule, in plain words: pIC50 of 6 and up is Condition met, under 6 is Condition not met.

IN: Kindly determine if pIC50 recorded for `O=C(Nc1ccc(Cl)cc1Cl)c1cc(Cl)ccc1O` is above or exactly 6.
OUT: Condition met

IN: Could you tell me if the measured pIC50 of `NCCNCCNC(=O)c1cc2ccccc2cc1O` reaches 6 or more?
OUT: Condition met

IN: Kindly determine if pIC50 recorded for `CCCn1c(SCC(=O)NCC(F)(F)F)nc2ccccc2c1=O` is above or exactly 6.
OUT: Condition not met

IN: Textbook exercise: given the entry `O=C(Nc1ccc(Cl)cc1)c1cc(Cl)ccc1O` , state whether its pIC50 is greater than or equal to 6.
OUT: Condition met

IN: Does the reported pIC50 for `CS(=O)(=O)c1ccc(NC(=O)c2cc(Cl)ccc2O)c(Cl)c1` fall at or above the 6 mark?
OUT: Condition not met

IN: Has `CCc1c(C)nc(SCC(=O)Nc2nc(-c3ccc(OC)cc3)cs2)[nH]c1=O` a recorded pIC50 greater than or equal to 6?
OUT: Condition not met

IN: Tell me whether pIC50 is at least 6 here: `COc1cc(Nc2ccc([N+](=O)[O-])cc2C(=O)O)cc2ccccc12`
OUT: Condition not met

IN: Answer whether pIC50 of `O=C(Nc1cccc(C(F)(F)F)c1)c1cc(Cl)ccc1O` is greater than or equal to 6.
OUT: Condition met

IN: Test whether the compound `O=C(Nc1cc(Cl)cc(Cl)c1)c1cc(Cl)ccc1O` records pIC50 of 6 or higher.
OUT: Condition met
